Values from PubChem BioAssay (NCATS)

runDescription: Confirmation and Secondary Assay for Modulators of Hemoglobin Beta Chain Splicing at IVS2 705 locus (AID 930);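 also: GFP fluorescence per well restored by corrected splicing of the IVS2-705 intron in EGFP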;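 as to activation: HeLa cells stably expressing the EGFP-705 splicing reporter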
experimentalParameters: HeLa EGFP-705 splicing reporter, GFP fluorescence, 48 h; series mostly up to 46.1 µM
Calls of active or inactive are those of the source. Calls follow the shape of the dose curve; as a rule, active = well fitted activation curve with a large enough effect; inconclusive = small, poorly fitted or top-dose-only effect; inactive = flat fitted curve, though single readings scatter.
Labels: yes = active, no = inactive

compound: CCOC(=O)C1(O)Oc2cc(OC)cc(OC)c2C(=O)C1c1ccccc1 (stereo unspecified)
classification: no
//
compound: S=C1NC=NC2N=CNC12 (stereo unspecified)
classification: yes
//
compound: CC1(C)C(OC(=O)CCC(=O)O)CC[C@]2(C)C1CC[C@@]1(C)C2C(=O)C=C2[C@@H]3C[C@@](C)(C(=O)O)CC[C@]3(C)CCC21C (stereo partly specified)
classification: no
//
compound: COc1ccc2c(c1)OCC(Cc1ccc(OC)c(OC)c1)C2=O (stereo unspecified)
classification: no
//
compound: COC(=O)[C@@]1(C)CCC[C@@]2(C)c3ccc(O)c(C(C)C)c3CCC21 (stereo partly specified)
classification: no
//
compound: O=c1c(O)c(-c2ccccc2)oc2ccc3occc3c12
classification: no
